Values were extracted from patent US20100298300A1.

TARGET_OR_TEST_SYSTEM: MAPKAPK5 (Homo sapiens, UniProt Q8IW41)
RESULT_TYPE: IC50

Solved cases below.
>>> data_value("O=C1NCc2cc(-c3cnc(Nc4ccc(OCCN5CCOCC5)cc4)c4ncnn34)ccc21 [Compound 65]")
"0.101 to 0.5 µM"
>>> data_value("CC(C)N1CCN(c2ccc(Nc3ncc(-c4ccc5c(c4)CNC5=O)n4ncnc34)cc2)C(=O)C1 [Compound 112]")
"0.101 to 0.5 µM"
>>> data_value("CC(C)N1CCN(c2ccc(Nc3ncc(-c4cccc5c4CNC5=O)n4ncnc34)cn2)CC1 [Compound 98]")
"> 1 µM"
>>> data_value("O=C(NCCc1ccncc1)c1ccc(Nc2ncc(-c3cn[nH]c3)n3ncnc23)cc1 [Compound 137]")
"0.501 to 1 µM"
>>> data_value("c1nc2c(Nc3ccc(OCCN4CCOCC4)cc3)ncc(-c3cn[nH]c3)n2n1 [Compound 20]")
"> 1 µM"

Prompt: # lookup: IC50 of COc1cc(Nc2ncc(-c3csc(C(N)=O)c3)n3ncnc23)ccc1C(=O)NCc1ccccc1 [Compound 132]
Response: > 1 µM

Prompt: Field request: IC50 | item: CC(C)(C)NC(=O)N1CCC(Nc2ncc(-c3ccc4c(c3)CNC4=O)n3ncnc23)CC1 [Compound 178]
Response: 0.501 to 1 µM

Prompt: Bench note: what IC50 did FC(F)(F)CN1CCC(c2ccc(Nc3ncc(-c4cn[nH]c4)n4ncnc34)cc2)CC1 [Compound 64] show?
Response: > 1 µM

====

TARGET_OR_TEST_SYSTEM: MAPKAPK5 (Homo sapiens)
Sequence (Q8IW41 1-471 isoform Q8IW41-2): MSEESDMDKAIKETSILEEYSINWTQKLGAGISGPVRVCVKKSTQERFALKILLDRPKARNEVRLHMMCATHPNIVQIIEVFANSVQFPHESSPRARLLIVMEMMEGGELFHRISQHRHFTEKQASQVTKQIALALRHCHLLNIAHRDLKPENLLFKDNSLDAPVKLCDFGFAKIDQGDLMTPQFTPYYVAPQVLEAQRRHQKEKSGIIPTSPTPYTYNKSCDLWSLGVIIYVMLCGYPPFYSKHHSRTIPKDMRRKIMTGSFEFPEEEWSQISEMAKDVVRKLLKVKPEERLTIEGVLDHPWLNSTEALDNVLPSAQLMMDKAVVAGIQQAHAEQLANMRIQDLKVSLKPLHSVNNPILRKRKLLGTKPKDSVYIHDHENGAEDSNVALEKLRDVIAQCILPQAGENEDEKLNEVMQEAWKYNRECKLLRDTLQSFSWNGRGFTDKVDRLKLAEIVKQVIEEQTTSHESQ
The entries below are paired with their reported IC50.

Some molecules with recorded IC50:
>>> data_value("Nc1nc(-c2ccc(-c3cnc(Nc4ccc(N5CCOCC5)cc4)c4ncnn34)cc2)cs1 [Compound 85]")
"> 1000 nM"
>>> data_value("O=C1NCc2cc(-c3cnc(NC4CCNCC4)c4ncnn34)ccc21 [Compound 185]")
"> 1000 nM"
>>> data_value("O=C(c1ccc(Nc2ncc(-c3cn[nH]c3)n3ncnc23)cc1)N1CCN(Cc2ccc(F)cc2)CC1 [Compound 144]")
"501 to 1000 nM"
>>> data_value("O=C1NCc2cc(-c3cnc(NC4CCC4)c4ncnn34)ccc21 [Compound 182]")
"101 to 500 nM"
>>> data_value("CC(C)N1CCN(c2ccc(Nc3ncc(-c4ccc5c(c4)CNC5=O)n4ncnc34)cc2Cl)CC1 [Compound 180]")
"1 to 100 nM"

Prompt: Sample O=C(Nc1ccc(N2CCOCC2)nc1)c1ccc(Nc2ncc(-c3cn[nH]c3)n3ncnc23)cc1 [Compound 194] — what was its IC50?
Response: > 1000 nM

Prompt: IC50 for NC(=O)c1ccc(-c2cnc(Nc3ccc(N4CCOCC4)cc3)c3ncnn23)s1 [Compound 13] ?
Response: > 1000 nM

Prompt: Fill in the blank: the reported IC50 of O=C1CNCCN1c1ccc(Nc2ncc(-c3cn[nH]c3)n3ncnc23)cc1 [Compound 100] is ____.
Response: > 1000 nM

====

pIC50: −log10 of the molar value.
Here's what we have: pIC50 numbers for MAPKAPK5 (Homo sapiens, UniProt Q8IW41).

These recorded examples may help you get a feel for the data.
>>> data_value("C[C@@H]1CN(c2ccc(Nc3ncc(-c4cn[nH]c4)n4ncnc34)cc2)[C@@H](C)CN1C")
"6.30 to 7.00"
>>> data_value("C[C@@H]1CN(c2ccc(Nc3ncc(-c4csc(C(N)=O)c4)n4ncnc34)cc2)C[C@H](C)O1")
"6.00 to 6.30"
>>> data_value("CCC(COC)NC(=O)c1ccc(Nc2ncc(-c3cn[nH]c3)n3ncnc23)cc1 (centres unmarked)")
"< 6.00"
>>> data_value("C[C@@H]1CN(c2ccc(Nc3ncc(-c4csc(C(N)=O)c4)n4ncnc34)cc2)[C@@H](C)CN1C")
"6.30 to 7.00"
>>> data_value("O=C(c1ccc(Nc2ncc(-c3cn[nH]c3)n3ncnc23)cc1)N1CCC(N2CCCCC2)CC1")
"< 6.00"
>>> data_value("c1nc2c(Nc3ccc(N4CCOCC4)cc3)ncc(-c3ccc4cn[nH]c4c3)n2n1")
"< 6.00"
>>> data_value("CN1CCN(c2ccc(Nc3ncc(-c4csc(C(N)=O)c4)n4ncnc34)cc2)CC1")
"7.00 to 9.00"
>>> data_value("CCNC(=O)c1cccc(Nc2ncc(-c3cn[nH]c3)n3ncnc23)c1")
"< 6.00"

Prompt: # get_value(readout= pIC50, system= MAPKAPK5 (Homo sapiens, UniProt Q8IW41)) for `O=C(c1ccc(Nc2ncc(-c3cn[nH]c3)n3ncnc23)cc1)N1CC=CCC1`
Response: 6.00 to 6.30

Prompt: // map `CC(C)N1CCN(c2ccc(Nc3ncc(-c4ccc5c(c4)CNC5=O)n4ncnc34)c(Cl)c2)CC1` to recorded pIC50 (system: MAPKAPK5 (Homo sapiens, UniProt Q8IW41))
Response: 6.30 to 7.00

Prompt: Form field - read-out: pIC50; system: MAPKAPK5 (Homo sapiens, UniProt Q8IW41); submitted item: `O=C(NCc1cc(-c2ccccc2)on1)c1ccc(Nc2ncc(-c3ccc4c(c3)CNC4=O)n3ncnc23)cc1`
Response: < 6.00

====

TARGET_OR_TEST_SYSTEM: MAPKAPK5 (Homo sapiens)
Sequence (Q8IW41 1-471 isoform Q8IW41-2): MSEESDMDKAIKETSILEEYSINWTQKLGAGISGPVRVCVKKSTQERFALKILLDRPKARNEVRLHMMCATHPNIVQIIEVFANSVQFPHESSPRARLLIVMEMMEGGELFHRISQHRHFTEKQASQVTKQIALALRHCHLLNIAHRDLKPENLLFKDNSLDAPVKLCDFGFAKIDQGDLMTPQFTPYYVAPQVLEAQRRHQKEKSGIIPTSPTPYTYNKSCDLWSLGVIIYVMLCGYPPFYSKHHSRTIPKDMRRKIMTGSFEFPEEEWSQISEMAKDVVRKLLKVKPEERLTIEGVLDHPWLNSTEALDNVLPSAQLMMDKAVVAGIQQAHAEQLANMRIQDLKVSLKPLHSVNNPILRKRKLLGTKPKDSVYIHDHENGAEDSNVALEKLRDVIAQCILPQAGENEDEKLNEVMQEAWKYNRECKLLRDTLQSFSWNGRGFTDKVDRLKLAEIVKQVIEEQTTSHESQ
RESULT_TYPE: IC50

Sample records with IC50:
>>> data_value("CCC(C)N1CCN(C(=O)c2ccc(Nc3ncc(-c4cn[nH]c4)n4ncnc34)cc2)CC1 (centres unmarked)")
"0.501 to 1 µM"
>>> data_value("CNCc1cc(Nc2ncc(-c3ccc4c(c3)CNC4=O)n3ncnc23)ccc1N1CCOCC1")
"0.101 to 0.5 µM"
>>> data_value("CC(C)N1CCN(c2ccc(Nc3ncc(-c4csc5ccccc45)n4ncnc34)cc2)CC1")
"> 1 µM"
>>> data_value("CC(C)N1CCC(Nc2ncc(-c3ccc4c(c3)CNC4=O)n3ncnc23)CC1")
"> 1 µM"
>>> data_value("c1nc2c(Nc3ccc(N4CCN(C5CC5)CC4)cc3)ncc(-c3cn[nH]c3)n2n1")
"> 1 µM"

Now let's try a different one.
Prompt: // lookup IC50 for `O=C(NCCc1ccc(O)cc1)c1ccc(Nc2ncc(-c3cn[nH]c3)n3ncnc23)cc1`
Response: > 1 µM

====

TARGET_OR_TEST_SYSTEM: UniProt Q8IW41
Sequence (Q8IW41 1-471 isoform Q8IW41-2): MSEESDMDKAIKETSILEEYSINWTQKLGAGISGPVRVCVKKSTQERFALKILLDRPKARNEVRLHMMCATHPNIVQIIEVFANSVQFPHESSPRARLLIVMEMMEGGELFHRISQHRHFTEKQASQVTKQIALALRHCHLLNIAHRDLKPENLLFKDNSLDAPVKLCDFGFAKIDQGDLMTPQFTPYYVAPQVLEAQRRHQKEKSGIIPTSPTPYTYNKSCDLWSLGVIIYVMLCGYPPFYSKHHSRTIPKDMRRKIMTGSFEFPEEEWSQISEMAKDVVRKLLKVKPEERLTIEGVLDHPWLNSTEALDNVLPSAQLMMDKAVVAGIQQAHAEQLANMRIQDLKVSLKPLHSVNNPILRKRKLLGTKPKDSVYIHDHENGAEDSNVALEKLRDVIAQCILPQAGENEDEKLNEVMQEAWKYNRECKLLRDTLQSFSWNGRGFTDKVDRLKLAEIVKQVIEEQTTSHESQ
compounds and their reported IC50

>>> data_value("CC(C)N1CCC(c2ccc(Nc3ncc(-c4ccc5c(c4)CNC5=O)n4ncnc34)cc2)CC1")
"1 to 100 nM"
>>> data_value("CC(C)(C)N1CCN(c2ccc(Nc3ncc(-c4coc(C(N)=O)c4)n4ncnc34)cc2)CC1")
"1 to 100 nM"
>>> data_value("O=C(Nc1ccc(N2CCOCC2)nc1)c1ccc(Nc2ncc(-c3ccc4c(c3)CNC4=O)n3ncnc23)cc1")
"> 1000 nM"
>>> data_value("Cc1[nH]ncc1-c1cnc(Nc2ccc(N3CCOCC3)cc2)c2ncnn12")
"501 to 1000 nM"
>>> data_value("NC(=O)c1coc(-c2cnc(Nc3ccc(N4CCOCC4)cc3)c3ncnn23)c1")
"> 1000 nM"
>>> data_value("O=C1NCc2cc(-c3cnc(Nc4ccc(N5CCNCC5=O)cc4)c4ncnn34)ccc21")
"1 to 100 nM"
>>> data_value("NC(=O)c1ccc(-c2cnc(Nc3ccc(N4CCOCC4)cc3)c3ncnn23)cc1F")
"> 1000 nM"
>>> data_value("c1nc2c(Nc3ccc(N4CCOCC4)cc3)ncc(-c3ccsc3)n2n1")
"> 1000 nM"
>>> data_value("FC(F)(F)c1cc(Nc2ncc(-c3cn[nH]c3)n3ncnc23)ccc1N1CCOCC1")
"> 1000 nM"
>>> data_value("CC(C)N1CCN(c2ccc(Nc3ncc(-c4ccsc4)n4ncnc34)cc2)CC1")
"> 1000 nM"

Prompt: Param item = `Fc1cc(Nc2ncc(-c3cn[nH]c3)n3ncnc23)ccc1N1CCOCC1` ; retrieve measured IC50.
Response: > 1000 nM

Prompt: Given the compound `NC(=O)c1cc(-c2cnc(Nc3ccc(C4CCN(CC(F)(F)F)CC4)cc3)c3ncnn23)cs1` , what is its reported IC50?
Response: > 1000 nM

Prompt: # query: IC50 of entry `c1cc(-c2cnc(Nc3ccc(N4CCOCC4)cc3)c3ncnn23)[nH]n1`
Response: > 1000 nM

Prompt: Need IC50 of `CC(C)N1CCN(c2ccc(Nc3ncc(-c4cn[nH]c4)n4ncnc34)cc2)CC1` , thanks.
Response: 501 to 1000 nM

Prompt: # get_value(readout='IC50', item= `c1nc2c(Nc3ccc(N4CCOCC4)nc3)ncc(-c3cn[nH]c3)n2n1` )
Response: > 1000 nM

Prompt: Given `O=C(c1ccc(Nc2ncc(-c3cn[nH]c3)n3ncnc23)cc1)N1CCN(c2ccccc2)CC1` , state its recorded IC50.
Response: 501 to 1000 nM

Prompt: Query (compound): `CC(C)N1CCN(c2ccc(Nc3ncc(-c4cccc5c4CNC5=O)n4ncnc34)cc2)CC1` ; field requested: IC50
Response: > 1000 nM
